- System: SK-MEL-28
- Experiment summary: NCI tumour cell line growth inhibition, 48 h
Active and inactive are the calls of the source. No stated cut-off is given here; in the data, active = GI50 up to about 1.1 µM and inactive = higher.
Kindly state GI50 for each of the entries shown.

INSERT INTO assay_data (compound, subject_of_test, property, test_result) VALUES
  ('CC[C@@H]1/C=C/C=C/C[C@H](C)[C@@H](O)[C@@H](C)C(=O)[C@H](C)[C@@H](O)[C@H](C)C(=O)[C@H](C)[C@@H](O)[C@H](C)/C=C/C(=O)O[C@H]2[C@@H](C)[C@@H](CC1)O[C@@]1(CC[C@@H](C)[C@@H](CC(C)O)O1)[C@@H]2C (stereo partly drawn)', 'SK-MEL-28', 'GI50', '10.6 µM (inactive)'),
  ('Cc1c(O)c(OC2OC(CO)C(O)C(O)C2O)cc2c1C=C[C@@H]1[C@@]2(C)C(=O)C[C@]2(C)[C@@H]([C@@](C)(O)C(=O)CCC(C)(C)O)[C@H](O)C[C@@]12C (stereo partly drawn)', 'SK-MEL-28', 'GI50', '21.1 µM (inactive)');

Pending compound:
Log: SK-MEL-28, compound CN1C(=O)C(Cl)(C(Cl)(Cl)S(=O)(=O)O)C(=O)c2ccccc21.c1ccncc1 (stereo not drawn) , GI50 = > 100 µM (inactive)

----------
- Test system: SNB-78
- Experiment summary: NCI tumour cell line growth inhibition, 48 h
Calls of active or inactive are those of the source. No stated cut-off is given here; in the data, active = GI50 up to about 1.1 µM and inactive = higher.
Valid outcomes are listed here; reply with one: TRUE for active, FALSE for inactive

INSERT INTO results (compound, subject_of_test, category) VALUES
  ('CC[N+]1(C)CCC(O)(/C=C/c2ccccc2)C(C(=O)/C=C/c2ccccc2)C1 (stereo not given)', 'SNB-78', 'FALSE'),
  ('COc1cccc(-c2cc(=O)c3cc(C)c(C)c(C(=O)O)c3o2)c1', 'SNB-78', 'FALSE'),
  ('O=NN(CCCl)C(=O)NC1CCC(=O)NC1=O (stereo not given)', 'SNB-78', 'FALSE'),
  ('COc1c(NC(C)=O)cc(C)cc1NC(C)=O', 'SNB-78', 'FALSE'),
  ('COc1ccc(/C=C\c2cc(OC)c(OC)c(OC)c2)cc1OCC(=O)O', 'SNB-78', 'FALSE'),
  ('CC(=O)O[C@H]1C(=O)[C@@]2(C)C(C(OC(=O)c3ccccc3)[C@]3(O)CC(OC(=O)C(O)C(NC(=O)c4ccc(C(F)(F)F)cc4)c4ccccc4)C(C)=C1C3(C)C)[C@]1(OC(C)=O)CO[C@@H]1C[C@@H]2O (stereo not given in full)', 'SNB-78', 'TRUE'),
  ('CN(C)CC1CCCCCCCCCCCCC(CN(C)C)C1=O (stereo not given)', 'SNB-78', 'FALSE'),
  ('O=C(N/N=C/c1ccccc1O)c1cccc([N+](=O)[O-])c1', 'SNB-78', 'FALSE'),
  ('O=S(=O)(NCn1ccc2ccccc21)c1ccccc1', 'SNB-78', 'FALSE'),
  ('COC(=O)CCC(=O)CC1CC(=O)C2CCCN12 (stereo not given)', 'SNB-78', 'FALSE');

Qu. Status in this test for `O=C(/C=C/c1c(O)ccc2ccccc12)c1ccc2ccccc2c1` ?
Ans. FALSE

----------
- System: ACHN
- Experiment summary: NCI tumour cell line growth inhibition, 48 h
Calls of active or inactive are those of the source. Cut-off read from the data, not from the text of the source: active = GI50 up to about 1.1 µM and inactive = higher.
Valid outcomes are listed here; reply with one: active, inactive

Use the examples below as a reference point.
INSERT INTO results (compound, subject_of_test, category) VALUES
  ('NC(CSc1nc2ccccn2c1[N+](=O)[O-])C(=O)O (stereo not given)', 'ACHN', 'inactive'),
  ('Cc1cc2c(cc1-c1cc3c(cc1C)C(C(C)C)=C(O)C(=O)/C3=C\Nc1cccc3c(N)cccc13)/C(=C/Nc1cccc3c(N)cccc13)C(=O)C(O)=C2C(C)C', 'ACHN', 'inactive'),
  ('C[C@H]1COC2(c3ccccc3)CCC(=O)N12 (stereo not given in full)', 'ACHN', 'inactive');

Qu. Status in this test for `O=C1c2ccccc2C(=O)c2c(OCCOCCO)cccc21` ?
Ans. inactive

Qu. Status in this test for `S=P(N1CC1)(N1CC1)N1CC1` ?
Ans. inactive

Qu. Status in this test for `O=c1nc(N2CCCC2)nc(N2CCCC2)s1` ?
Ans. inactive

Qu. Status in this test for `Cc1ccc(NC(=O)CC(=O)n2nc(-c3ccccc3)c(/N=N\c3ccccc3[N+](=O)[O-])c2-c2ccccc2)cc1` ?
Ans. inactive

Qu. Status in this test for `c1ccc(-c2nnc3nn4c(-c5ccccc5)cnnc4c3c2-c2ccccc2)cc1` ?
Ans. inactive

Qu. Status in this test for `CCN(CC)c1ccc2c(c1)N=C1N=CC=CN1C2(c1ccc(N(C)C)cc1)c1ccc(N(C)C)cc1` ?
Ans. inactive

Every entry's value here was drawn from ChEMBL document CHEMBL1201862.
